Listed here: compounds with reported IC50 for Nuclear receptor ROR-gamma (Homo sapiens).
Answer with a number only, understood to be in nM.

Some compounds with recorded IC50:
Enquiry: # get_value(readout='IC50', item= O=C(O)Cc1ccc(CNC(=O)Nc2cc(F)c(-c3ccccc3OC(F)(F)F)c(F)c2)nc1 )
Return: 996

Enquiry: I'd like to know its IC50. The compound in question is O=C(O)CCc1ccc(CNC(=O)Nc2cc(Cl)c(-c3ccccc3OC(F)(F)F)c(Cl)c2)cc1
Return: 841

Enquiry: Value lookup for IC50; key = CCS(=N)(=O)c1ccc(CNC(=O)Nc2cc(Cl)c(-c3ccccc3OC(F)(F)F)c(Cl)c2)cc1 (stereo not drawn)
Return: 200

Enquiry: So what does the record say about IC50 for CCS(=O)(=O)c1ccc(COCc2cc(Cl)c(-c3ccccc3OC(F)(F)F)c(Cl)c2)cc1 ?
Return: 4410

Enquiry: // lookup IC50 for CCS(=O)(=O)c1ccc(CNC(=O)c2cc(Cl)c(-c3ccccc3OC(F)(F)F)c(Cl)c2)cc1
Return: 112

Next:
Enquiry: # query: IC50 of entry CCS(=O)(=O)c1ccc(CCOc2cc(Cl)c(-c3ccccc3OC(F)(F)F)c(Cl)c2)cc1
Return: 426

Enquiry: IC50 for CC(C(=O)O)c1ccc(CNC(=O)Nc2cc(Cl)c(-c3ccccc3OC(F)(F)F)c(C#N)c2)cc1 (stereo not drawn) ?
Return: 334
